Where do the numbers come from? From paper PMC3798429.

Measured ΔT m values are reported for all entries that follow.
assay target: UniProtKB P12861
Format: binding
condition parameters: TbHsp83 NTD, inhibitor 25 µM; shifts above 2°C considered significant
Answer format: numeric, °C implied, no suffix.

Which ΔT m is listed for Oc1cc(O)c(-c2noc3ccc(NCCN4CCOCC4)cc23)cc1Cl [CAY10607] ? 13.3

Which ΔT m is listed for CO[C@H]1[C@@H](OC)C[C@H](C)[C@@H](OC)C2=CC(=O)C=C(NC(=O)/C(C)=C/C=C\[C@H](C)[C@@H](OC(N)=O)/C(C)=C/[C@@H]1C)C2=O [Macbecin I] ? 16.9

Which ΔT m is listed for Nc1ncnc2c1ncn2[C@@H]1O[C@H](COP(=O)(O)OP(=O)(O)NP(=O)(O)O)[C@@H](O)[C@H]1O [AMPPNP] ? 0.3

Which ΔT m is listed for CSCCNc1cc(-n2nc(C(F)(F)F)c3c2CC(C)(C)CC3=O)ccc1C(N)=O [Compound 5] ? 12.03

Which ΔT m is listed for CC1(C)CC(=O)c2c(C(F)(F)F)nn(-c3ccc(C(N)=O)c(N[C@H]4CC[C@H](O)CC4)c3)c2C1 [Compound 4] ? 15.5

---

assay target: TbHsp83 NTD (Trypanosoma brucei brucei, UniProt P12861)
Sequence (P12861 1-213): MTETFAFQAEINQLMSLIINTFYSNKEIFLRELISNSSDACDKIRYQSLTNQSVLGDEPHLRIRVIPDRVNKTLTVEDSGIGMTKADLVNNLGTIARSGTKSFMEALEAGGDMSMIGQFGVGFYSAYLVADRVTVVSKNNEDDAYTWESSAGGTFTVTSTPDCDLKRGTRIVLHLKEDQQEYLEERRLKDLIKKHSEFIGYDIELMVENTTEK
Type: binding
condition parameters: TbHsp83 NTD, inhibitor 25 µM; shifts above 2°C considered significant
Method: DSF screening was carried out using a LightCycler 480 Real Time PCR System (Roche Applied Science, Quebec, Canada). […] The final concentration of the protein sample was optimized between 0.05 and 0.2 mg/ml for each NTD (concentration selected based on pre-testing results to avoid saturation of the fluorescence detector). […] The recorded fluorescence reads were fitted to the Boltzmann sigmoid function using Bioactive software (Harbinger Biotechnology and Engineering Corp., Ontario, Canada). […]
Lab note: compare ΔT m against 10 °C. Equal or greater, write Y. Smaller, write N.

API: above_or_equal(metric=ΔT m, cutoff=10 °C) for item `C=CCNC1=C2C[C@@H](C)C[C@H](OC)[C@H](O)[C@@H](C)/C=C(\C)[C@H](OC(N)=O)[C@@H](OC)/C=C\C=C(/C)C(=O)NC(=CC1=O)C2=O` Y

---

assay target: TbHsp83 NTD (Trypanosoma brucei brucei)
Format: binding
condition parameters: TbHsp83 NTD, inhibitor 25 µM; shifts above 2°C considered significant
measured attribute: ΔT m (°C)
Answer format: numeric, °C implied, no suffix.

compound=CO[C@H]1/C=C\C=C(/C)C(=O)NC2=CC(=O)C(NCCN(C)C)=C(C[C@@H](C)C[C@H](OC)[C@H](O)[C@@H](C)/C=C(\C)[C@@H]1OC(N)=O)C2=O assay_target="TbHsp83 NTD (Trypanosoma brucei brucei)" measured_attribute="ΔT m" numeric_readout=11.7
compound=C[C@@H]1C[C@H]2O[C@@H]2/C=C\C=C\C(=O)Cc2c(Cl)c(O)cc(O)c2C(=O)O1 assay_target="TbHsp83 NTD (Trypanosoma brucei brucei)" measured_attribute="ΔT m" numeric_readout=6.5
compound=CCc1cc(-c2n[nH]c(C)c2-c2ccc3c(c2)OCCO3)c(O)cc1O assay_target="TbHsp83 NTD (Trypanosoma brucei brucei)" measured_attribute="ΔT m" numeric_readout=8.01
compound="CC(=O)c1ccc(N2C3CCC2CC(NC(=O)c2ccc(C(N)=O)c(NC4CCC(O)CC4)c2)C3)nc1 (stereo not shown)" assay_target="TbHsp83 NTD (Trypanosoma brucei brucei)" measured_attribute="ΔT m" numeric_readout=10.4
compound=COc1c(C)cnc(Cn2cnc3c(Cl)nc(N)nc32)c1C assay_target="TbHsp83 NTD (Trypanosoma brucei brucei)" measured_attribute="ΔT m" numeric_readout=10.5
compound=CCNC(=O)c1cc2c(-c3cc(OCCN(CC)CC)c(Cl)cc3Cl)nc(N)nc2s1 assay_target="TbHsp83 NTD (Trypanosoma brucei brucei)" measured_attribute="ΔT m" numeric_readout=12.7

We now examine a further compound.
Which ΔT m is listed for `Nc1ncnc2c1ncn2[C@@H]1O[C@H](COP(=O)(O)OP(=O)(O)O)[C@@H](O)[C@H]1O` ? 0.1
